Entry source: PubChem BioAssay AID624056

# System: E. coli EV36 T7 phage lysis inhibition, OD600
# method_description: capsule biogenesis inhibitors via T7 lysis, dose response, EV36 K1 hybrid, OD600, round 7 (AID 624056)
measured_attribute: IC50

**Q:** Need IC50 of `O=C(Nc1ccncc1)c1ccc2ncsc2c1` , thanks.
**A:** 660 nM

**Q:** Same for `CCCc1ccc(-c2cc(NC(=O)c3c(F)cc(F)cc3F)c(C(=O)O)s2)cc1`
**A:** 1520 nM

**Q:** Same for `O=C(Nc1cc(-c2ccc(OC(F)(F)F)cc2)sc1C(=O)O)c1ccc(Br)o1`
**A:** 1170 nM
